Test system: Escherichia coli IAI1
Test summary: growth AUC relative to DMSO control (median of replicates) (fraction); higher = more growth (less inhibition), active = hit call of the paper
Test conditions: 20 µM; 24 h
Parameter growth AUC: see the listing below.
Measured attribute: growth AUC

[[record]]
compound = "O=P(OC(CCl)CCl)(OC(CCl)CCl)OC(CCl)CCl"
measured_attribute = "growth AUC"
readout_number = 1

[[record]]
compound = "CC(Oc1ccc(Oc2nc3ccc(Cl)cc3o2)cc1)C(=O)O (racemic)"
measured_attribute = "growth AUC"
readout_number = 0.997

[[record]]
compound = "CN(C)C(=O)Nc1cccc(C(F)(F)F)c1"
measured_attribute = "growth AUC"
readout_number = 0.986

[[record]]
compound = "O=C(O)CNCP(=O)(O)O"
measured_attribute = "growth AUC"
readout_number = 1

[[record]]
compound = "CCCCC(O)(Cn1cncn1)c1ccc(Cl)cc1Cl (stereo not drawn)"
measured_attribute = "growth AUC"
readout_number = 0.996

[[record]]
compound = "CCOP(=S)(OCC)SCS(=O)(=O)C(C)(C)C"
measured_attribute = "growth AUC"
readout_number = 0.966

[[record]]
compound = "OC[C@@H](O)[C@H]1O[C@@H]2O[C@H](C(Cl)(Cl)Cl)O[C@@H]2[C@H]1O (mixture of isomers)"
measured_attribute = "growth AUC"
readout_number = 0.986

[[record]]
compound = "CS(=O)(=O)c1cc(C(F)(F)F)ccc1C(=O)c1cnoc1C1CC1"
measured_attribute = "growth AUC"
readout_number = 1.01

[[record]]
compound = "CCNc1nc(Cl)nc(NC(C)C)n1"
measured_attribute = "growth AUC"
readout_number = 0.992

[[record]]
compound = "CCOC(=O)C(SP(=S)(OC)OC)c1ccccc1 (stereo not drawn)"
measured_attribute = "growth AUC"
readout_number = 0.976

[[record]]
compound = "CCNc1nc(Cl)nc(NC(C)(C)C#N)n1"
measured_attribute = "growth AUC"
readout_number = 0.988

[[record]]
compound = "O=C(Nc1ccccc1-c1ccc(Cl)cc1)c1cccnc1Cl"
measured_attribute = "growth AUC"
readout_number = 1.01

[[record]]
compound = "CCC(=O)Nc1ccc(Cl)c(Cl)c1"
measured_attribute = "growth AUC"
readout_number = 0.99

[[record]]
compound = "[Cl][Sn]([c]1ccccc1)([c]1ccccc1)[c]1ccccc1"
measured_attribute = "growth AUC"
readout_number = 0.964

[[record]]
compound = "CCc1nn(C)c(C(=O)NCc2ccc(C(C)(C)C)cc2)c1Cl"
measured_attribute = "growth AUC"
readout_number = 0.967

[[record]]
compound = "COc1ccc(C(c2ccc(OC)cc2)C(Cl)(Cl)Cl)cc1"
measured_attribute = "growth AUC"
readout_number = 0.967

[[record]]
compound = "CCNS(=O)(=O)C(F)(F)C(F)(F)C(F)(F)C(F)(F)C(F)(F)C(F)(F)C(F)(F)C(F)(F)F"
measured_attribute = "growth AUC"
readout_number = 0.99

[[record]]
compound = "CCOP(=O)(OCC)OCC"
measured_attribute = "growth AUC"
readout_number = 1.07

[[record]]
compound = "C=CCNC(=O)c1c([Si](C)(C)C)sc(C)c1C"
measured_attribute = "growth AUC"
readout_number = 1.01

[[record]]
compound = "N#Cc1cc(Br)c(O)c(Br)c1"
measured_attribute = "growth AUC"
readout_number = 0.773

[[record]]
compound = "COP(=S)(OC)Oc1ccc(Sc2ccc(OP(=S)(OC)OC)cc2)cc1"
measured_attribute = "growth AUC"
readout_number = 1.01

[[record]]
compound = "CO/C=C(/C(=O)OC)c1ccccc1Oc1cc(Oc2ccccc2C#N)ncn1"
measured_attribute = "growth AUC"
readout_number = 0.976

[[record]]
compound = "CC(C)N(C(=O)COc1nnc(C(F)(F)F)s1)c1ccc(F)cc1"
measured_attribute = "growth AUC"
readout_number = 1.01

[[record]]
compound = "O=[N+]([O-])c1ccc2ccc3cccc4ccc1c2c34"
measured_attribute = "growth AUC"
readout_number = 0.99

[[record]]
compound = "FC(F)C(F)(F)OCC(Cn1cncn1)c1ccc(Cl)cc1Cl (stereo not drawn)"
measured_attribute = "growth AUC"
readout_number = 0.966

[[record]]
compound = "Oc1c(Cl)c(Cl)cc(Cl)c1Cl"
measured_attribute = "growth AUC"
readout_number = 0.746

[[record]]
compound = "CCN(CC)C(=O)SCc1ccc(Cl)cc1"
measured_attribute = "growth AUC"
readout_number = 1.01

[[record]]
compound = "CC(C1CC1)C(O)(Cn1cncn1)c1ccc(Cl)cc1 (mixture of isomers)"
measured_attribute = "growth AUC"
readout_number = 0.971

